- testName: Measurement of the approximate solubility (visual dissolution in solvent aliquots)
- Assay type: physicochemical
- cond: aqueous with cosolvent or surfactant or cyclodextrin, thermodynamic from solid, ambient, isopropanol/water 20:80 v/v
assayEndpoint: solubility

What measured solubility goes with N#Cc1ccc(N2CCC[C@@H]2C(O)C(F)(F)F)cc1C(F)(F)F (stereo partly shown) [Compound of Formula (I)] ?
< 2000 µg/mL

* * *

- testName: Measurement of the approximate solubility (visual dissolution in solvent aliquots)
- Format: physicochemical
- cond: aqueous with cosolvent or surfactant or cyclodextrin, thermodynamic from solid, ambient, 2,2,2-trifluoroethanol/water 20:80 v/v
assayEndpoint: solubility

Value lookup for solubility; key = N#Cc1ccc(N2CCC[C@@H]2C(O)C(F)(F)F)cc1C(F)(F)F (stereo partly shown)
< 2000 µg/mL

* * *

- testName: Measurement of the approximate solubility (visual dissolution in solvent aliquots)
- Format: physicochemical
- cond: organic solvent or mixture, thermodynamic from solid, ambient, chloroform
assayEndpoint: solubility (mg/mL)
Give bare numbers, in mg/mL.

Looking for the measured solubility of N#Cc1ccc(N2CCC[C@@H]2C(O)C(F)(F)F)cc1C(F)(F)F (stereo partly shown) , can you help?
37

* * *

- testName: Measurement of the approximate solubility (visual dissolution in solvent aliquots)
- Format: physicochemical
- cond: aqueous with cosolvent or surfactant or cyclodextrin, thermodynamic from solid, ambient, methanol/water 20:80 v/v
- Protocol: Aliquots of various solvents were added to measured amounts of compound with agitation (typically sonication) at ambient or elevated temperatures until complete dissolution was achieved, as judged by visual observation. The approximate solubility at ambient temperature must be known in order to carry out systematic crystallization experiments.
assayEndpoint: solubility

What value of solubility has been recorded for this entry: N#Cc1ccc(N2CCC[C@@H]2C(O)C(F)(F)F)cc1C(F)(F)F (stereo partly shown)
< 2000 µg/mL

* * *

- testName: Measurement of the approximate solubility (visual dissolution in solvent aliquots)
- Type: physicochemical
- cond: organic solvent or mixture, thermodynamic from solid, ambient, cyclohexane
assayEndpoint: solubility

What measured solubility goes with N#Cc1ccc(N2CCC[C@@H]2C(O)C(F)(F)F)cc1C(F)(F)F (stereo partly shown) ?
< 2000 µg/mL

* * *

- testName: Measurement of the approximate solubility (visual dissolution in solvent aliquots)
- Assay type: physicochemical
- cond: organic solvent or mixture, thermodynamic from solid, ambient, dichloromethane
assayEndpoint: solubility

What measured solubility goes with N#Cc1ccc(N2CCC[C@@H]2C(O)C(F)(F)F)cc1C(F)(F)F (stereo partly shown) ?
37 mg/mL

* * *

- testName: Measurement of the approximate solubility (visual dissolution in solvent aliquots)
- Type: physicochemical
- cond: organic solvent or mixture, thermodynamic from solid, ambient, 1-propanol
assayEndpoint: solubility (mg/mL)
Answers are plain numbers, in mg/mL.

For the molecule shown here, N#Cc1ccc(N2CCC[C@@H]2C(O)C(F)(F)F)cc1C(F)(F)F (stereo partly shown) [Compound of Formula (I)] , give the reported solubility.
55

* * *

- testName: Measurement of the approximate solubility (visual dissolution in solvent aliquots)
- Assay type: physicochemical
- cond: organic solvent or mixture, thermodynamic from solid, ambient, hexanes
- Method: Aliquots of various solvents were added to measured amounts of compound with agitation (typically sonication) at ambient or elevated temperatures until complete dissolution was achieved, as judged by visual observation. The approximate solubility at ambient temperature must be known in order to carry out systematic crystallization experiments.
assayEndpoint: solubility

Form field: reported solubility of N#Cc1ccc(N2CCC[C@@H]2C(O)C(F)(F)F)cc1C(F)(F)F (stereo partly shown) [Compound of Formula (I)]
< 2000 µg/mL

* * *

- testName: Measurement of the approximate solubility (visual dissolution in solvent aliquots)
- Format: physicochemical
- cond: aqueous with cosolvent or surfactant or cyclodextrin, thermodynamic from solid, ambient, acetonitrile/water 20:80 v/v
assayEndpoint: solubility

Find the recorded solubility belonging to N#Cc1ccc(N2CCC[C@@H]2C(O)C(F)(F)F)cc1C(F)(F)F (stereo partly shown) and report it.
< 2000 µg/mL

* * *

- testName: Measurement of the approximate solubility (visual dissolution in solvent aliquots)
- Format: physicochemical
- cond: organic solvent or mixture, thermodynamic from solid, ambient, acetonitrile
assayEndpoint: solubility

If you can, please state the reported solubility value of N#Cc1ccc(N2CCC[C@@H]2C(O)C(F)(F)F)cc1C(F)(F)F (stereo partly shown) [Compound of Formula (I)] .
> 110 mg/mL

* * *

- testName: Measurement of the approximate solubility (visual dissolution in solvent aliquots)
- Assay type: physicochemical
- cond: organic solvent or mixture, thermodynamic from solid, ambient, 2,2,2-trifluoroethanol
assayEndpoint: solubility (mg/mL)
Give bare numbers, in mg/mL.

solubility lookup needed for N#Cc1ccc(N2CCC[C@@H]2C(O)C(F)(F)F)cc1C(F)(F)F (stereo partly shown) , thanks.
51

* * *

- testName: Measurement of the approximate solubility (visual dissolution in solvent aliquots)
- Type: physicochemical
- cond: organic solvent or mixture, thermodynamic from solid, ambient, ethanol
assayEndpoint: solubility

Consider the molecule N#Cc1ccc(N2CCC[C@@H]2C(O)C(F)(F)F)cc1C(F)(F)F (stereo partly shown) and give its measured solubility.
> 104 mg/mL

* * *

- testName: Measurement of the approximate solubility (visual dissolution in solvent aliquots)
- Type: physicochemical
- cond: organic solvent or mixture, thermodynamic from solid, ambient, ethyl acetate
assayEndpoint: solubility

Which solubility is reported for this compound? N#Cc1ccc(N2CCC[C@@H]2C(O)C(F)(F)F)cc1C(F)(F)F (stereo partly shown)
> 108 mg/mL

* * *

- testName: Measurement of the approximate solubility (visual dissolution in solvent aliquots)
- Format: physicochemical
- cond: organic solvent or mixture, thermodynamic from solid, ambient, 1-butanol
assayEndpoint: solubility (mg/mL)
Numbers only, in mg/mL.

Fill in: solubility of N#Cc1ccc(N2CCC[C@@H]2C(O)C(F)(F)F)cc1C(F)(F)F (stereo partly shown) is ___
37

* * *

- testName: Measurement of the approximate solubility (visual dissolution in solvent aliquots)
- Format: physicochemical
- cond: aqueous with cosolvent or surfactant or cyclodextrin, thermodynamic from solid, ambient, acetone/water 50:50 v/v
assayEndpoint: solubility (µg/mL)
Give bare numbers, in µg/mL.

Quick one: solubility for N#Cc1ccc(N2CCC[C@@H]2C(O)C(F)(F)F)cc1C(F)(F)F (stereo partly shown) [Compound of Formula (I)] ?
9000

* * *

- testName: Measurement of the approximate solubility (visual dissolution in solvent aliquots)
- Format: physicochemical
- cond: aqueous with cosolvent or surfactant or cyclodextrin, thermodynamic from solid, ambient, ethanol/water 20:80 v/v
assayEndpoint: solubility

Which solubility value belongs to N#Cc1ccc(N2CCC[C@@H]2C(O)C(F)(F)F)cc1C(F)(F)F (stereo partly shown) ?
< 2000 µg/mL

* * *

- testName: Measurement of the approximate solubility (visual dissolution in solvent aliquots)
- Assay type: physicochemical
- cond: organic solvent or mixture, thermodynamic from solid, ambient, methanol
assayEndpoint: solubility

What does the record list as solubility for N#Cc1ccc(N2CCC[C@@H]2C(O)C(F)(F)F)cc1C(F)(F)F (stereo partly shown) ?
> 116 mg/mL

* * *

- testName: Measurement of the approximate solubility (visual dissolution in solvent aliquots)
- Format: physicochemical
- cond: aqueous with cosolvent or surfactant or cyclodextrin, thermodynamic from solid, ambient, tetrahydrofuran/water 20:80 v/v
assayEndpoint: solubility

Requested read-out: solubility. Entry: N#Cc1ccc(N2CCC[C@@H]2C(O)C(F)(F)F)cc1C(F)(F)F (stereo partly shown) [Compound of Formula (I)]
< 2000 µg/mL

* * *

- testName: Measurement of the approximate solubility (visual dissolution in solvent aliquots)
- Type: physicochemical
- cond: organic solvent or mixture, thermodynamic from solid, ambient, toluene
assayEndpoint: solubility (mg/mL)
Numbers only, in mg/mL.

Recorded solubility for N#Cc1ccc(N2CCC[C@@H]2C(O)C(F)(F)F)cc1C(F)(F)F (stereo partly shown) [Compound of Formula (I)] , please?
15

Entry source: patent US12319651B2
